assay: cAMP Responsive Elements (CRE) small molecule antagonists, cell-based qHTS assay: qHTS cell viability counter screen (AID 2060913); conditions: CRE-bla HEK293T viability, CellTiter-Glo luminescence, 5 h; series mostly up to 92.4 µM; further: potency means the concentration at half of the fitted maximal effect; nearly all actives have a fitted effect of over 40% in size
Records with an inconclusive call do not appear. Activity calls are given as the source filed them. The call rests on the fitted dose curve; in most records, active means well fitted cell-killing curve with a large enough effect in the repeat runs; inconclusive means weak or mixed curves, or effect the other way; inactive means flat fitted curve, though single readings scatter.
Observation type: Potency

Compound: CN(C)C(=O)C1(N2CCCCC2)CCN(CC[C@@]2(c3ccc(Cl)c(Cl)c3)CN(C(=O)c3ccccc3)CCO2)CC1
Observation type: Potency
Result: 64.1 µM (active)

Compound: C[n+]1cc2c3c(ccc2c2ccc4cc5c(cc4c21)OCO5)OCO3
Observation type: Potency
Result: 3.66 µM (active)

Compound: CCCCCCCCCOC(=O)c1ccc(O)cc1
Observation type: Potency
Result: 47.9 µM (active)

Compound: S=C1NC=NC2N=CNC12 (stereo unspecified)
Observation type: Potency
Result: 3.06 µM (active)

Compound: CCCCCCCCCCCCN(CCO)CCO
Observation type: Potency
Result: 60.9 µM (active)

Compound: Cc1ccc(S(=O)(=O)C(I)I)cc1
Observation type: Potency
Result: 61.1 µM (active)

Compound: CC[C@H]1O[C@]2(CC[C@@H]1C)C[C@@H]1C[C@@H](C/C=C(\C)C[C@@H](C)/C=C/C=C3\CO[C@@H]4[C@H](O)C(C)=C[C@@H](C(=O)O1)[C@]34O)O2
Observation type: Potency
Result: 30.4 µM (active)

Compound: C=CC(=O)OCC(CO)(COC(=O)C=C)COC(=O)C=C
Observation type: Potency
Result: 28.5 µM (active)

Compound: CC(C)(C)c1ccc(O)c(C(C)(C)C)c1
Observation type: Potency
Result: 48.6 µM (active)

Compound: CCOC(=O)O[C@H](C)OC(=O)c1ccc2c(c1)cc(C(=O)NC1CCN(C(C)C)CC1)n2Cc1cc(-c2ccc(Cl)s2)on1
Observation type: Potency
Result: 57.1 µM (active)

Compound: CCCC(c1cc(C(C)(C)C)c(O)cc1C)c1cc(C(C)(C)C)c(O)cc1C
Observation type: Potency
Result: 24.6 µM (active)

Compound: CC(=O)N1CCN(c2ccc(OC[C@H]3CO[C@](Cn4ccnc4)(c4ccc(Cl)cc4Cl)O3)cc2)CC1
Observation type: Potency
Result: 54.5 µM (active)

Compound: COc1ccc(CCN2CCC(Nc3nc4ccccc4n3Cc3ccc(F)cc3)CC2)cc1
Observation type: Potency
Result: 35.1 µM (active)

Compound: Cc1cc(CCN2CCN(c3nsc4ccccc34)CC2)cc2c1NC(=O)CC2(C)C
Observation type: Potency
Result: 68.6 µM (active)

Compound: CCCCCCCC[N+](CCCCCCCC)(CCCCCCCC)CCCCCCCC
Observation type: Potency
Result: 19.3 µM (active)

Compound: CCCCC(CC)CN=C(N)NC(N)=NCCCCCCN=C(N)NC(N)=NCC(CC)CCCC (stereo unspecified)
Observation type: Potency
Result: 21.1 µM (active)

Compound: CSc1ccc2c(c1)N(CCC1CCCCN1C)c1ccccc1S2 (stereo unspecified)
Observation type: Potency
Result: 60.9 µM (active)

Compound: NCc1cccc(C2CCN(C(=O)c3ccc(C#Cc4ccccc4F)o3)CC2)c1
Observation type: Potency
Result: 68.6 µM (active)

Compound: CCc1cc(SCc2sc(-c3ccc(C(F)(F)F)cc3)nc2CN2CCN(c3ccc(OC)cc3)CC2)ccc1OCC(=O)O
Observation type: Potency
Result: 54.5 µM (active)

Compound: CS(=O)(=O)c1ccc(-c2cn3ccccc3n2)cc1
Observation type: Potency
Result: 26.6 µM (active)

Compound: CC(C)COCC(CN(Cc1ccccc1)c1ccccc1)N1CCCC1 (stereo unspecified)
Observation type: Potency
Result: 29.8 µM (active)

====

test: cAMP Responsive Elements (CRE) small molecule agonists, cell-based qHTS assay: qHTS cell viability counter screen (AID 2060914); details: CRE-bla HEK293T viability, CellTiter-Glo luminescence, 5 h; series mostly up to 92.4 µM;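 further: viability read after 3 h of compound exposure; nearly all actives have a fitted effect of over 50% in size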
Inconclusive results are not listed. Active and inactive are the calls of the source. The call rests on the fitted dose curve; in most records, active means well fitted cell-killing curve with a large enough effect in the repeat runs; inconclusive means weak or mixed curves, or effect the other way; inactive means flat fitted curve, though single readings scatter.

Molecule: CC(=O)OCc1ccc2c(c1)OCO2
activity change, negative = cytotoxicity: inactive
--
Molecule: COc1cccc(N(C)C(=S)Oc2ccc3c(c2)CCCC3)n1
activity change, negative = cytotoxicity: inactive
--
Molecule: CC(=O)NO
activity change, negative = cytotoxicity: inactive
--
Molecule: CN1CCCC(n2nc(Cc3ccc(Cl)cc3)c3ccccc3c2=O)CC1 (centres undefined)
activity change, negative = cytotoxicity: inactive
--
Molecule: CC(=O)OCC(=O)[C@@]12N=C(C)O[C@@H]1C[C@H]1[C@@H]3CCC4=CC(=O)C=C[C@]4(C)[C@H]3[C@@H](O)C[C@@]12C
activity change, negative = cytotoxicity: inactive
--
Molecule: N#Cc1ccc(C2CCCc3cncn32)cc1 (centres undefined)
activity change, negative = cytotoxicity: inactive
--
Molecule: CCC1CCC(CCC(=O)O)C1 (centres undefined)
activity change, negative = cytotoxicity: inactive
--
Molecule: NC(=O)C(c1ccccc1)(c1ccccc1)[C@@H]1CCN(CCc2ccc3c(c2)CCO3)C1
activity change, negative = cytotoxicity: inactive
--
Molecule: CC1=C(CC(=O)O)c2cc(F)ccc2/C1=C\c1ccc(S(C)(=O)=O)cc1
activity change, negative = cytotoxicity: inactive
--
Molecule: O=C(Cl)c1c(Cl)c(Cl)c(C(=O)Cl)c(Cl)c1Cl
activity change, negative = cytotoxicity: inactive
--
Molecule: Cc1ccccc1C(N)=O
activity change, negative = cytotoxicity: inactive
--
Molecule: CC1CCCCC1
activity change, negative = cytotoxicity: inactive
--
Molecule: COC(C)=O
activity change, negative = cytotoxicity: inactive
--
Molecule: O=[N+]([O-])c1cccc(I)c1
activity change, negative = cytotoxicity: inactive
--
Molecule: CC(=O)OCC(=O)[C@@]1(O)CC[C@H]2[C@@H]3CCC4=CC(=O)C=C[C@]4(C)[C@@]3(F)[C@@H](O)C[C@@]21C
activity change, negative = cytotoxicity: inactive
--
Molecule: OCCOCC#CCOCCO
activity change, negative = cytotoxicity: inactive
--
Molecule: COCCOC
activity change, negative = cytotoxicity: inactive
--
Molecule: NC(Cc1c[nH]c2ccccc12)C(=O)O (centres undefined)
activity change, negative = cytotoxicity: inactive
--
Molecule: CC(C)(CO)[C@@H](O)C(=O)NCCC(=O)O
activity change, negative = cytotoxicity: inactive
--
Molecule: NC(=O)NC(=O)Cc1ccccc1
activity change, negative = cytotoxicity: inactive
--
Molecule: O=S(=O)(O)CCS
activity change, negative = cytotoxicity: inactive
--
Molecule: OC[C@H]1O[C@@H]2O[C@H]3[C@H](O)[C@@H](O)[C@@H](O[C@H]4[C@H](O)[C@@H](O)[C@@H](O[C@H]5[C@H](O)[C@@H](O)[C@@H](O[C@H]6[C@H](O)[C@@H](O)[C@@H](O[C@H]7[C@H](O)[C@@H](O)[C@@H](O[C@H]8[C@H](O)[C@@H](O)[C@@H](O[C@H]1[C@H](O)[C@H]2O)O[C@@H]8CO)O[C@@H]7CO)O[C@@H]6CO)O[C@@H]5CO)O[C@@H]4CO)O[C@@H]3CO
activity change, negative = cytotoxicity: inactive
--
Molecule: OC1CCCCCCCCCCC1
activity change, negative = cytotoxicity: inactive
--
Molecule: CC(C)(C)c1cc(CCC(=O)OCCSCCOC(=O)CCc2cc(C(C)(C)C)c(O)c(C(C)(C)C)c2)cc(C(C)(C)C)c1O
activity change, negative = cytotoxicity: inactive
--
Molecule: CC(=O)Nc1ccc(OC(=O)c2ccccc2OC(C)=O)cc1
activity change, negative = cytotoxicity: inactive
--
Molecule: C=C(C)[C@@H]1CC=C(C)C(=O)C1
activity change, negative = cytotoxicity: inactive
--
Molecule: CCCCOC(=O)[C@H](C)O
activity change, negative = cytotoxicity: inactive
--
Molecule: O=C(O)c1cccc(C(=O)O)c1C(=O)O
activity change, negative = cytotoxicity: inactive
--
Molecule: CC(=O)N/N=C/c1ccc([N+](=O)[O-])o1
activity change, negative = cytotoxicity: inactive
--
Molecule: CCc1cccc(CC)c1NC(=O)C(=O)O
activity change, negative = cytotoxicity: inactive
--
Molecule: CC(=O)O[C@H]1C[C@@H]2CC[C@@H]3[C@H](CC[C@@]4(C)[C@H]3C[C@H]([N+]3(C)CCCCC3)[C@@H]4OC(C)=O)[C@@]2(C)C[C@@H]1N1CCCCC1
activity change, negative = cytotoxicity: inactive
--
Molecule: Cc1cc([N+](=O)[O-])ccc1N
activity change, negative = cytotoxicity: inactive
--
Molecule: COc1cc(NC(C)CCCN)c2ncccc2c1 (centres undefined)
activity change, negative = cytotoxicity: inactive
--
Molecule: CSc1cnc(C)cn1
activity change, negative = cytotoxicity: inactive
--
Molecule: Cc1c(OCC(F)(F)F)ccnc1CS(=O)c1nc2ccccc2[nH]1 (centres undefined)
activity change, negative = cytotoxicity: inactive
--
Molecule: CCc1ccc(O)cc1
activity change, negative = cytotoxicity: inactive
--
Molecule: CC[C@]12CCCN3CCc4c(n(c5ccccc45)[C@@](O)(C(=O)OC)C1)[C@@H]32
activity change, negative = cytotoxicity: inactive
--
Molecule: CC(=O)C(C)C
activity change, negative = cytotoxicity: inactive
--
Molecule: Cc1cc(C)cc([N+](=O)[O-])c1
activity change, negative = cytotoxicity: inactive
--
Molecule: CCCCCCCCCC(=O)N(C)C
activity change, negative = cytotoxicity: inactive
--
Molecule: CN(C)CCOCCN(C)C
activity change, negative = cytotoxicity: inactive
--
Molecule: OCCOCCOCCO
activity change, negative = cytotoxicity: inactive
--
Molecule: Brc1nc2ccccc2s1
activity change, negative = cytotoxicity: inactive
--
Molecule: CCCCCC(=O)O
activity change, negative = cytotoxicity: inactive
--
Molecule: CC(=O)SC[C@@H](C)C(=O)N1CCC[C@H]1C(=O)N[C@@H](Cc1ccccc1)C(=O)O
activity change, negative = cytotoxicity: inactive
--
Molecule: Cc1cccc([N+](=O)[O-])c1C
activity change, negative = cytotoxicity: inactive
--
Molecule: COC(=O)c1ccccc1C(=O)c1ccc(OCCN2CCCCC2)cc1
activity change, negative = cytotoxicity: inactive
--
Molecule: CCOc1ccc(NC(C)=O)cc1
activity change, negative = cytotoxicity: inactive
--
Molecule: CC1=C(C/C=C(\C)CCC[C@H](C)CCC[C@H](C)CCCC(C)C)C(=O)c2ccccc2C1=O
activity change, negative = cytotoxicity: inactive
